Test target: AR protein in VCaP cells (Homo sapiens)
Construct: endogenous in cells; host or cells: VCaP cells
Sequence (P10275 1-920): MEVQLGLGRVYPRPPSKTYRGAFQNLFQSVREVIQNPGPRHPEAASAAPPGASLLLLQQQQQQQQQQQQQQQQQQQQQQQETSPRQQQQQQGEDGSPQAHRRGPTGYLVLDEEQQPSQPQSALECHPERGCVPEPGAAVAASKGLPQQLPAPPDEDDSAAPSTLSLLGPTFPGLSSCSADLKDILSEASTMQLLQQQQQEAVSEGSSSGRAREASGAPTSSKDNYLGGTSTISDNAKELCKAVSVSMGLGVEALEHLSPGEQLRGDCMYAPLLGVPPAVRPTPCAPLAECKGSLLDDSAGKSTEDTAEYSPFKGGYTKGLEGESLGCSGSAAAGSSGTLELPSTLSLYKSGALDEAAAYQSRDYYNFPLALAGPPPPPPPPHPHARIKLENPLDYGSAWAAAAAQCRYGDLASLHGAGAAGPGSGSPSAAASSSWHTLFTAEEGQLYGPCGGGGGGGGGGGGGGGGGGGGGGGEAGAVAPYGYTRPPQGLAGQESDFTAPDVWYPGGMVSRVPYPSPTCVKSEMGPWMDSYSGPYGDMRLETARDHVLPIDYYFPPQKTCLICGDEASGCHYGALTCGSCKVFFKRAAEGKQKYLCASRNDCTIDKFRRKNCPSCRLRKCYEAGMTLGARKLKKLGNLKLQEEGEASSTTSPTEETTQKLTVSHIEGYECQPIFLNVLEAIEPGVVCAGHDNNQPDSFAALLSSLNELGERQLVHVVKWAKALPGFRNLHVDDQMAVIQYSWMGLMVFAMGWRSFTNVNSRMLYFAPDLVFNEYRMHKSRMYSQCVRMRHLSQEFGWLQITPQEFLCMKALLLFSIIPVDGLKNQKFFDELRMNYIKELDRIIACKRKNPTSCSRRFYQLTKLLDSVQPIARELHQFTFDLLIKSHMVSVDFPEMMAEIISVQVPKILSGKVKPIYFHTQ
Procedure details: VCAP AR Degradation Assay (AR ELISA, 24 h)
Format: cell-based
Measurement conditions: concentration of compound when AR level = 50% of DMSO control, read-out: DC50
DC50 for assorted compounds

{"Compound": "CCc1cc(N2C(=S)N(c3cnc(C#N)c(C(F)(F)F)c3)C(=O)C23CCC3)ccc1OCC[C@H]1CCN(CC(=O)Nc2cccc(NC3CCC(=O)NC3=O)c2)C(C)(C)C1 (some centres unmarked)", "Test target": "AR protein in VCaP cells (Homo sapiens)", "DC50": "100 to 500 nM"}
{"Compound": "CCc1cc(N2C(=S)N(c3ccc(C#N)c(C(F)(F)F)c3)C(=O)C2(C)C)ccc1OCCC1CCN(CC(=O)Nc2cc(Cl)cc(NC3CCC(=O)NC3=O)c2)CC1 (centres unmarked)", "Test target": "AR protein in VCaP cells (Homo sapiens)", "DC50": "< 100 nM"}
{"Compound": "CCc1cc(N2C(=S)N(c3ccc(C#N)c(C(F)(F)F)c3)C(=O)C2(C)C)ccc1OCC1CCN(CC(=O)Nc2cccc(NC3CCC(=O)NC3=O)c2)CC1 (centres unmarked)", "Test target": "AR protein in VCaP cells (Homo sapiens)", "DC50": "100 to 500 nM"}
{"Compound": "CCc1cc(N2C(=S)N(c3ccc(C#N)c(C(F)(F)F)c3)C(=O)C2(C)C)ccc1OCCC1CCN([C@@H](C)C(=O)Nc2cc(Cl)cc(NC3CCC(=O)NC3=O)c2)CC1 (some centres unmarked)", "Test target": "AR protein in VCaP cells (Homo sapiens)", "DC50": "100 to 500 nM"}
{"Compound": "CC1(C)C(=O)N(c2ccc(C#N)c(C(F)(F)F)c2)C(=S)N1c1ccc(OCCC2CCN(CC(=O)Nc3cccc(NC4CCC(=O)NC4=O)c3)CC2)c(Cl)c1 (centres unmarked)", "Test target": "AR protein in VCaP cells (Homo sapiens)", "DC50": "100 to 500 nM"}

// provenance: patent US11325889B2
